Where do these numbers come from? They come from patent US8163737B2.

measurement target: endogenous CGRP receptor (Homo sapiens, UniProt O60894+Q16602)
Sequence (Q16602 23-461): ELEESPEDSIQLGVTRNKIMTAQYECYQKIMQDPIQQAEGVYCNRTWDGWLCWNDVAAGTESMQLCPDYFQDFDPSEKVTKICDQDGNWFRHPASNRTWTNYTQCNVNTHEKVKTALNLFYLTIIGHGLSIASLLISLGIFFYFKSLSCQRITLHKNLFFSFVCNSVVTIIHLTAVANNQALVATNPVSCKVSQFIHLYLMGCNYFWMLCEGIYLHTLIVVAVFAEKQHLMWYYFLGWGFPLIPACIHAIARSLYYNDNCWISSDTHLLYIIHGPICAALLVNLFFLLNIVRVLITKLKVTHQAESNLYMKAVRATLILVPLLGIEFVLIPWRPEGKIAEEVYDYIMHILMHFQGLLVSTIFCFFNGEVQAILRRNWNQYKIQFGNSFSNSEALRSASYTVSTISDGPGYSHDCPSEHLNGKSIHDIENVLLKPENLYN
Sequence (O60894 27-148): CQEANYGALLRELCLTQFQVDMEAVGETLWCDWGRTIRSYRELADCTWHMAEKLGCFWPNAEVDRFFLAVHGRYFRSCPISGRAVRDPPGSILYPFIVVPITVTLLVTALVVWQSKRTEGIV
assay notes: CGRP functional antagonism using SK-N-MC-BLA (4C10), β-lactamase transcriptional reporter assay
Assay type: cell-based
details: SK-N-MC (4C10) cells, inhibition of β-lactamase expression in the presence of 200 pM CGRP
pIC50: −log10 of the molar value.
Recorded measurements of pIC50, one per entry

Examples with their reported pIC50 follow.
molecule | measurement target | pIC50
CC(C)CCN1C(=O)C(CC(=O)N2CCC(N3Cc4ccccc4NC3=O)CC2)SC12CCSCC2 (stereo not drawn) [Compound 84] | endogenous CGRP receptor (Homo sapiens, UniProt O60894+Q16602) | > 6.00
CC(C)OCCN1C(=O)[C@H](CC(=O)N2CCC(N3CCc4ccccc4NC3=O)CC2)SC1c1cccc(F)c1N1CCN(C(C)(C)C)CC1 (stereo partly drawn) [Compound 529] | endogenous CGRP receptor (Homo sapiens, UniProt O60894+Q16602) | > 6.00
CN1CCN(c2ccc(F)cc2C2SC(CC(=O)N3CCC(n4c(=O)[nH]c5ccccc54)CC3)C(=O)N2CCC(C)(C)C)CC1 (stereo not drawn) [Compound 354] | endogenous CGRP receptor (Homo sapiens, UniProt O60894+Q16602) | > 6.00

Req: What reported pIC50 corresponds to CC(C)(C)CCN1C(=O)C(CC(=O)N2CCC(N3CCc4ccccc4NC3=O)CC2)SC1c1ccccc1N1CCC(N2CCCCC2)CC1 (stereo not drawn) [Compound 384] on endogenous CGRP receptor (Homo sapiens, UniProt O60894+Q16602)?
Resp: < 5.30

Req: Then this molecule: CC(C)(C)N1CCN(c2c(F)cccc2[C@H]2S[C@@H](CC(=O)N3CCC(N4CCc5ccccc5NC4=O)CC3)C(=O)N2CC2CCCCC2)CC1 [Compound 514]
Resp: > 6.00

Req: Queued: CC(C)CCN1C(=O)C(CC(=O)N2CCC(N3Cc4ccccc4NC3=O)CC2)SC1c1ccccc1C#N (stereo not drawn) [Compound 227]
Resp: > 6.00
